System: Escherichia coli
Assay: Antibacterial activity against Escherichia coli ATCC assessed after 24 hrs by serial dilution method
METRIC: MIC

Reference set (2 entries):
Cc1ccc(CC(=O)Nc2cc([N+](=O)[O-])ccc2O)cc1 :: 125 µg/mL
Cc1ccc(CC(=O)Nc2ccc([N+](=O)[O-])cc2O)cc1 :: 125 µg/mL

Input: Would you mind telling me what MIC value was observed for CCc1ccc(C(=O)Nc2ccc(N)cc2O)cc1 ?
Output: 125 µg/mL

Input: Now consider O=C(Nc1cc([N+](=O)[O-])ccc1O)c1ccccc1 and answer again.
Output: 125 µg/mL

Input: Cool, now Nc1ccc(NC(=O)c2ccc(Br)cc2)c(O)c1
Output: 125 µg/mL

Input: Okay, and Nc1ccc(NC(=O)c2ccc(F)cc2)c(O)c1 ?
Output: 250 µg/mL

Input: Also check CC(C)(C)c1ccc(C(=O)Nc2ccc(N)cc2O)cc1
Output: 125 µg/mL

Input: Check CCc1ccc(C(=O)Nc2ccc([N+](=O)[O-])cc2O)cc1 too.
Output: 125 µg/mL

Input: Field entry: Nc1ccc(NC(=O)Cc2ccc(Br)cc2)c(O)c1
Output: 125 µg/mL

Input: Ok, now Nc1ccc(NC(=O)c2ccccc2)c(O)c1
Output: 125 µg/mL

Input: Do the same for CC1(C)S[C@@H]2[C@H](NC(=O)[C@H](N)c3ccccc3)C(=O)N2[C@H]1C(=O)O.O.O.O [AMPICILLIN TRIHYDRATE] please
Output: > 4100 µg/mL

---

Quick reference: MIC of the listed items.
System: Escherichia coli
Assay: Antibacterial activity against Escherichia coli ATCC assessed after 24 hrs by serial dilution method
Report the value in µg/mL with no unit label.

Input: Entry Nc1ccc(O)c(NC(=O)c2ccccc2)c1 has what MIC?
Output: 125

Input: Now the molecule O=C(Nc1ccc([N+](=O)[O-])cc1O)c1ccc(Br)cc1
Output: 62.5

Input: Also O=C(Nc1ccc([N+](=O)[O-])cc1O)c1ccc(F)cc1 , if possible.
Output: 125

Input: Again, but for Nc1ccc(NC(=O)Cc2ccc(F)cc2)c(O)c1
Output: 62.5

Input: And what about the molecule Cc1ccc(CC(=O)Nc2ccc(N)cc2O)cc1 ?
Output: 125

Input: How about this molecule: CC(C)(C)c1ccc(C(=O)Nc2ccc([N+](=O)[O-])cc2O)cc1
Output: 125

---

Listing: MIC of selected molecules
Tested on: Escherichia coli
Experiment: Antibacterial activity against Escherichia coli ATCC assessed after 24 hrs by serial dilution method
Give the value in µg/mL but do not write µg/mL after it.

Nc1ccc(O)c(NC(=O)c2ccc(F)cc2)c1 :: 125
Nc1ccc(NC(=O)Cc2ccc(Cl)cc2)c(O)c1 :: 125
O=C(Cc1ccc(Cl)cc1)Nc1ccc([N+](=O)[O-])cc1O :: 125
O=C(Nc1cc([N+](=O)[O-])ccc1O)c1ccc(F)cc1 :: 125
CCc1ccc(C(=O)Nc2cc([N+](=O)[O-])ccc2O)cc1 :: 125

--- query ---
Input: What value of MIC has been recorded for this entry: O=C(Cc1ccc(F)cc1)Nc1ccc([N+](=O)[O-])cc1O
Output: 125

---

Tested on: Pseudomonas aeruginosa
Experiment: Antibacterial activity against Pseudomonas aeruginosa ATCC […] assessed after 24 hrs by serial dilution method
In this section we review reported MIC values for a set of compounds.
Give the value, in units of µg/mL, as a plain number.

Answered examples (3):
Nc1ccc(NC(=O)Cc2ccc(Cl)cc2)c(O)c1 :: 125
CCc1ccc(C(=O)Nc2cc(N)ccc2O)cc1 :: 62.5
CCc1ccc(C(=O)Nc2ccc([N+](=O)[O-])cc2O)cc1 :: 250

Input: Returns the measured MIC for the input compound. Input: CC(C)(C)c1ccc(C(=O)Nc2ccc(N)cc2O)cc1
Output: 62.5

Input: Request: Nc1ccc(NC(=O)c2ccc(Br)cc2)c(O)c1
Output: 250

Input: Moving on to the next compound: CC1COc2c(N3CCN(C)CC3)c(F)cc3c(=O)c(C(=O)O)cn1c23 (centres undefined) [OFLOXACIN]
Output: 8

Input: Same again, this time with CC(C)(C)c1ccc(C(=O)Nc2ccc([N+](=O)[O-])cc2O)cc1
Output: 125

Input: Similarly, O=C(Nc1cc([N+](=O)[O-])ccc1O)c1ccc(F)cc1 ?
Output: 62.5

Input: Also need Cc1ccc(CC(=O)Nc2cc([N+](=O)[O-])ccc2O)cc1 , thanks.
Output: 125

Input: Proceed to CCc1ccc(C(=O)Nc2ccc(N)cc2O)cc1
Output: 250

Input: Another compound to look at: O=C(Nc1ccc([N+](=O)[O-])cc1O)c1ccc(Br)cc1
Output: 250

Input: // same read-out, input: O=C(Nc1ccc([N+](=O)[O-])cc1O)c1ccccc1
Output: 125

Input: Proceed to CO[C@H]1/C=C/O[C@@]2(C)Oc3c(C)c(O)c4c(O)c(c(/C=N/N5CCN(C)CC5)c(O)c4c3C2=O)NC(=O)/C(C)=C\C=C\[C@H](C)[C@H](O)[C@@H](C)[C@@H](O)[C@@H](C)[C@H](OC(C)=O)[C@@H]1C [RIFAMPIN]
Output: 32

Input: For Nc1ccc(NC(=O)Cc2ccc(Br)cc2)c(O)c1 then?
Output: 250

Input: Do the same for Nc1ccc(O)c(NC(=O)c2ccc(F)cc2)c1 please
Output: 62.5

Input: // query: Cc1ccc(CC(=O)Nc2ccc(N)cc2O)cc1
Output: 125

Input: # iterate: Cc1ccc(CC(=O)Nc2ccc([N+](=O)[O-])cc2O)cc1
Output: 250

---

This listing pairs molecules with measured MIC.
System: Staphylococcus aureus
Experiment: Antibacterial activity against Staphylococcus aureus ATCC 25923 assessed after 24 hrs by serial dilution method
Format: functional
Details: ATCC 25923, 24 h
Express your answer in µg/mL, writing the number without its unit.

Past entries and their recorded results:
Cc1ccc(CC(=O)Nc2cc([N+](=O)[O-])ccc2O)cc1 :: 250
CCc1ccc(C(=O)Nc2ccc(N)cc2O)cc1 :: 125
O=C(Cc1ccc(Br)cc1)Nc1ccc([N+](=O)[O-])cc1O :: 250
Nc1ccc(NC(=O)c2ccccc2)c(O)c1 :: 125

Input: Return reported MIC; argument: Nc1ccc(NC(=O)Cc2ccc(Br)cc2)c(O)c1
Output: 125

Input: What about CCc1ccc(C(=O)Nc2cc(N)ccc2O)cc1 ?
Output: 15.6

Input: One more molecule: O=C(Nc1cc([N+](=O)[O-])ccc1O)c1ccccc1
Output: 31.2

---

Test system: Staphylococcus aureus
Test: Antibacterial activity against Staphylococcus aureus ATCC 25923 assessed after 24 hrs by serial dilution method
Format: functional
Settings: ATCC 25923, 24 h
METRIC: MIC (µg/mL)
Give the quantity in µg/mL, number only.

In the examples that follow, each entry is paired with its recorded MIC.
CCc1ccc(C(=O)Nc2cc([N+](=O)[O-])ccc2O)cc1 :: 7.8
O=C(Cc1ccc(F)cc1)Nc1ccc([N+](=O)[O-])cc1O :: 125
Nc1ccc(O)c(NC(=O)Cc2ccc(F)cc2)c1 :: 62.5
Cc1ccc(CC(=O)Nc2ccc([N+](=O)[O-])cc2O)cc1 :: 250

Input: State the recorded MIC for this entry: CC(C)(C)c1ccc(C(=O)Nc2ccc([N+](=O)[O-])cc2O)cc1
Output: 7.8

Input: Then Cc1ccc(CC(=O)Nc2ccc(N)cc2O)cc1 ?
Output: 250

Input: Now consider O=C(Cc1ccc(F)cc1)Nc1cc([N+](=O)[O-])ccc1O .
Output: 31.2

---

Test system: Escherichia coli
Assay: Antibacterial activity against Escherichia coli ATCC assessed after 24 hrs by serial dilution method
METRIC: MIC (µg/mL)
# number only, unit µg/mL dropped from output

O=C(Nc1ccc([N+](=O)[O-])cc1O)c1ccccc1 :: 125
O=C(Cc1ccc(Br)cc1)Nc1ccc([N+](=O)[O-])cc1O :: 125
O=C(Cc1ccc(F)cc1)Nc1cc([N+](=O)[O-])ccc1O :: 62.5

Read the next record carefully.
Input: Given the compound CCc1ccc(C(=O)Nc2cc(N)ccc2O)cc1 , what is its reported MIC?
Output: 125

---

Tested on: Pseudomonas aeruginosa
Assay: Antibacterial activity against Pseudomonas aeruginosa ATCC […] assessed after 24 hrs by serial dilution method
# MIC values compiled below
Could you give me the number in µg/mL? Just the number is fine.

Reference set (8 entries):
O=C(Nc1cc([N+](=O)[O-])ccc1O)c1ccccc1 :: 125
Nc1ccc(NC(=O)c2ccccc2)c(O)c1 :: 125
O=C(Cc1ccc(F)cc1)Nc1ccc([N+](=O)[O-])cc1O :: 125
Nc1ccc(O)c(NC(=O)c2ccccc2)c1 :: 125
O=C(Cc1ccc(Cl)cc1)Nc1ccc([N+](=O)[O-])cc1O :: 125
O=C(Nc1ccc([N+](=O)[O-])cc1O)c1ccc(F)cc1 :: 125
O=C(Cc1ccc(Br)cc1)Nc1ccc([N+](=O)[O-])cc1O :: 250
Nc1ccc(NC(=O)Cc2ccc(F)cc2)c(O)c1 :: 125

Turning to the following compound.
Input: // lookup MIC | system=Pseudomonas aeruginosa | key= CCc1ccc(C(=O)Nc2cc([N+](=O)[O-])ccc2O)cc1
Output: 62.5
